# measurement-description: gradient 5% acetonitrile 3 min, to 50% in 2 min, to 85% in 15 min, held 3 min, 100 µL/min
# condition-set: column: Zorbax Extend-C18 2.1 x 50 mm; eluents: water / acetonitrile, 0.1% formic acid
assay-endpoint: RP-LC retention time (s)
Give the value, in units of s, as a plain number.

smiles-data | RP-LC retention time / s
O=C(CN1CCN(Cc2ccc(F)cc2)C(=O)C1=O)N1CCN(c2ccc(F)cc2)CC1 | 744
Cc1ccc(NC(=O)CN2C(=O)NC3(CCCCC3)C2=O)cc1C | 792
O=c1oc2cc(O)c(Cl)cc2c2c1CCC2 | 794

Turning now to a further record.
Find the recorded RP-LC retention time belonging to CCn1ccc2c(cc(C(=O)Nc3ccc(Cl)cc3)n2C)c1=O and report it.
819

----------
Listed below: RP-LC retention time values for each entry.
# measurement-description: gradient 5% acetonitrile 3 min, to 50% in 2 min, to 85% in 15 min, held 3 min, 100 µL/min
# condition-set: column: Zorbax Extend-C18 2.1 x 50 mm; eluents: water / acetonitrile, 0.1% formic acid
Give the value, in units of s, as a plain number.

compound | u | RP-LC retention time
Cc1ccc(-n2nc(N3CCCN(S(=O)(=O)Cc4ccccc4)CC3)ccc2=O)cc1C | s | 912
COCCN1C(=O)CCc2cc(NC(=O)C(C)(C)C)ccc21 | s | 707
C=C1/C(=C/C=C2/CCC[C@]3(C)[C@@H]([C@H](C)CCCC(C)C)CC[C@@H]23)C[C@@H](O)C[C@@H]1O | s | 1220
CCOC(=O)C1CCN(c2ncnc3c2cnn3-c2ccccc2)CC1 | s | 944
CC(Oc1ccc(=O)n(-c2ccc(F)cc2)n1)C(=O)Nc1ccc(Cl)cc1 (stereo not drawn) | s | 845

Find the recorded RP-LC retention time belonging to COc1ccc(NC(=O)C2CCN(S(=O)(=O)c3cc4c(cc3C)NC(=O)CO4)CC2)cc1 and report it.
754

Find the recorded RP-LC retention time belonging to COc1ccc(CNC(=O)c2nc(N3CCOCC3)c3ccccc3n2)cc1 and report it.
662

Find the recorded RP-LC retention time belonging to O=C(NCCCn1ncccc1=O)c1coc(NC(=O)c2cccs2)n1 and report it.
589

Find the recorded RP-LC retention time belonging to CCC(C)NC(=O)c1cccn1Cc1noc(-c2ccc(Cl)cc2)n1 (stereo not drawn) and report it.
1080

Find the recorded RP-LC retention time belonging to CCc1nc(OCC(=O)Nc2ccccc2C(F)(F)F)c2ccccc2n1 and report it.
846

----------
Listed below: RP-LC retention time values for each entry.
# measurement-description: gradient 5% acetonitrile 3 min, to 50% in 2 min, to 85% in 15 min, held 3 min, 100 µL/min
# condition-set: column: Zorbax Extend-C18 2.1 x 50 mm; eluents: water / acetonitrile, 0.1% formic acid
Give the value, in units of s, as a plain number.

Here's what some known entries look like.
compound | RP-LC retention time / s
CCc1nc(-c2ccc3c(c2)CCN3C(=O)COc2ccccc2)no1 | 988
O=C(CN1CCC2(CC1)N=C(c1ccc(Cl)cc1)C(=O)N2)Nc1ccc2c(c1)OCCO2 | 670
CCOC(=O)c1ccc(NC2=NS(=O)(=O)C(c3ccccc3)=C2C)cc1 | 960
Cc1cnc(CNC(=O)c2c(=O)c3ccc(N4CCCN(C)CC4)nc3n3c2sc2ccccc23)cn1 | 681
CCOc1ccc(CNC(=O)C2CCCN(c3cc(=O)n(C)c(=O)n3CC)C2)cc1OCC (configuration not stated) | 791

Find the recorded RP-LC retention time belonging to O=C(CCc1nc2ccccc2s1)NCC12CCCC=C1NC(=O)CC2 (configuration not stated) and report it.
695

Find the recorded RP-LC retention time belonging to CC(Oc1ccccc1)C(=O)N1CCCn2nc(-c3cccs3)cc2C1 (configuration not stated) and report it.
844

Find the recorded RP-LC retention time belonging to O=C(NCCC1=CCCCC1)c1ccc2ncnc(N3CCCC3)c2c1 and report it.
688

Find the recorded RP-LC retention time belonging to CC(C)NC(=O)Cn1cnc2c(sc3nc(-c4ccccc4)ccc32)c1=O and report it.
817

Find the recorded RP-LC retention time belonging to COc1ccc(OC)c(S(=O)(=O)N2CCc3nc(-c4ccccc4)[nH]c3C2)c1 and report it.
536

Find the recorded RP-LC retention time belonging to O=C(Nc1ccc(F)cc1)C1CCCN(c2ccc3cc(S(=O)(=O)N4CCCC4)ccc3n2)C1 (configuration not stated) and report it.
634

Find the recorded RP-LC retention time belonging to CCc1noc(-c2cccnc2N2CCCN(Cc3ccc(Br)cc3)CC2)n1 and report it.
730

Find the recorded RP-LC retention time belonging to O=C(NCCc1cn2c(n1)SCC2)C(=O)Nc1ccc2c(c1)OCCO2 and report it.
556

Find the recorded RP-LC retention time belonging to Cc1ccc(Nc2nc(C)cc(N3CCN(C(=O)Nc4ccc5c(c4)OCO5)CC3)n2)cc1 and report it.
676

----------
Listed below: RP-LC retention time values for each entry.
# measurement-description: gradient 5% acetonitrile 3 min, to 50% in 2 min, to 85% in 15 min, held 3 min, 100 µL/min
# condition-set: column: Zorbax Extend-C18 2.1 x 50 mm; eluents: water / acetonitrile, 0.1% formic acid
Give the value, in units of s, as a plain number.

Find the recorded RP-LC retention time belonging to COc1cc2c(cc1OC)C(C(=O)NCc1ccc(C)o1)C1c3ccccc3CCN1C2=O (stereo not drawn) and report it.
946

Find the recorded RP-LC retention time belonging to COc1cccc(-n2nc(-c3nc(-c4ccccn4)no3)c3ccccc3c2=O)c1 and report it.
1020

Find the recorded RP-LC retention time belonging to CC(=O)Nc1ccc(SCCCC(=O)Nc2ncc([N+](=O)[O-])s2)nn1 and report it.
670

----------
# measurement-description: gradient 5% acetonitrile 3 min, to 50% in 2 min, to 85% in 15 min, held 3 min, 100 µL/min
# condition-set: column: Zorbax Extend-C18 2.1 x 50 mm; eluents: water / acetonitrile, 0.1% formic acid
Listed below: RP-LC retention time values for each entry.
Give the value, in units of s, as a plain number.

molecule | RP-LC retention time / s
CCn1ccc(C(=O)N2CCCn3nc(-c4cccs4)cc3C2)n1 | 748

Turning now to a further record.
Find the recorded RP-LC retention time belonging to C=CCn1c(C)c(CC(=O)Nc2ccc(F)c(F)c2)c(=O)n2nc(-c3ccc(C)cc3)nc12 and report it.
838

----------
# measurement-description: gradient 5% acetonitrile 3 min, to 50% in 2 min, to 85% in 15 min, held 3 min, 100 µL/min
# condition-set: column: Zorbax Extend-C18 2.1 x 50 mm; eluents: water / acetonitrile, 0.1% formic acid
Tag: MET if measured RP-LC retention time is not below 700 s, NOT MET if it is.

Study these solved cases before continuing.
compound | assigned-label
Cc1nc(-c2cn(C)c3ncccc23)sc1C(=O)NCc1ccc2c(c1)OCO2 | MET
CCC(CC)C(=O)N1CCN(c2nc(CN3CCOCC3)cs2)CC1 | NOT MET
COc1ccc(-c2cc3nn(CC(=O)Nc4ccc(F)cc4Cl)c(=O)n3c(C)n2)cc1 | MET

Does RP-LC retention time meet or surpass 700 s for CCn1nc(CNC(=O)c2ccc3c(c2)OCO3)c2ccccc21 ?
MET

Does RP-LC retention time meet or surpass 700 s for Nc1nc(N)c2nc(-c3cccc(O)c3)c(-c3cccc(O)c3)nc2n1 ?
NOT MET

Does RP-LC retention time meet or surpass 700 s for CCSc1nc2ccc(NS(=O)(=O)c3ccc(F)c(F)c3)cc2s1 ?
MET

Does RP-LC retention time meet or surpass 700 s for O=C(NCc1cccs1)C(=O)c1cccn1Cc1ccc(F)cc1 ?
MET

Does RP-LC retention time meet or surpass 700 s for Cc1ccc(NC(=O)C2CC(=O)N(c3cccc(NC(=O)C(C)C)c3)C2)cc1Cl (stereo not drawn) ?
MET

Does RP-LC retention time meet or surpass 700 s for NS(=O)(=O)c1cccnc1Nc1ccc2c(c1)OCCO2 ?
MET

Does RP-LC retention time meet or surpass 700 s for O=C(NCc1ccc(F)cc1F)c1ccc2c(c1)nc1n2CCN(c2ccccc2)C1=O ?
MET

----------
# measurement-description: gradient 5% acetonitrile 3 min, to 50% in 2 min, to 85% in 15 min, held 3 min, 100 µL/min
# condition-set: column: Zorbax Extend-C18 2.1 x 50 mm; eluents: water / acetonitrile, 0.1% formic acid
assay-endpoint: RP-LC retention time (s)
Give the value, in units of s, as a plain number.

Here's what some known entries look like.
molecule | quantitative-result
CN1c2cc(F)ccc2C(=O)NC12CCN(C(=O)c1cc(F)cc(F)c1)CC2 | 793
Cc1oc2ncnc(N3CCOCC3)c2c1C(=O)N1CCCc2ccccc21 | 790
CCOc1ccc(-c2noc(CN3N=NC4C(=O)N(c5ccc(C)c(F)c5)C(=O)C43)n2)cc1OC (stereo unspecified) | 801
O=C(CCCn1nnc2ccccc2c1=O)Nc1ccc(F)c(Cl)c1 | 794
O=C(NCc1ccccc1F)C1CCCN(c2nnc3ccc(C(F)(F)F)cn23)C1 (stereo unspecified) | 781

Find the recorded RP-LC retention time belonging to CCn1cc(S(=O)(=O)N2CCCn3nc(-c4ccc(OC)cc4)cc3C2)cn1 and report it.
805

Data provenance: the METLIN SMRT retention time set (Domingo-Almenara et al. 2019)
